Origin of measurements: the supplement of paper PMC10126150

System: ATP;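 note: ATP exposure 15 min at 22 °C before imaging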
test name: switch fluorescence ratio, 500 uM ATP over buffer (Cy3 cluster intensity, sum of 5 cycles each) (fold (ratio)); higher = stronger signal-on switching upon ATP binding; sequences stand for … in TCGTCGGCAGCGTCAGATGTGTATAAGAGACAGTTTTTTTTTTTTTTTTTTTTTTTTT…TC
experimental parameters: aptamer strand: ATP DNA aptamer (quencher-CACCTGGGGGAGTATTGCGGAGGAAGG + anchor), 100 nM annealed; ATP concentration: 500 uM
Each record here notes measured switch fluorescence ratio.
Give the figure only, with no unit attached.

Here are 5 sequences together with their reported answers.
> print(dat)
          seq  reported.result
1  AAGTCAGTTG             1.02
2  CAGCGGGGGT             1.03
3  TATTTGTGTT            0.997
4  TACAGGTATC             0.98
5  TCGACGTCTC             1.29

The record that follows has no switch fluorescence ratio shown yet.
Task: For `CTTACCTGAG` , what is its reported switch fluorescence ratio?
Result: 1.31
